Cited source: ChEMBL document CHEMBL3286310

Test system: Candida albicans
Assay: Antimicrobial activity against Candida albicans MTCC 277 at 100 ug/disc after 48 hrs by agar cup plate method
Type: functional
Conditions: MTCC 277, 48 h, read-out: DIZ
MEASURED QUANTITY: zone of inhibition at 100 µg/disc (mm)
Write the answer as a number in mm, unit excluded.

Would you please look over these solved cases?
COC1=CC(=O)C[C@@H](C)[C@]12Oc1c(Cl)c(OC)cc(OC)c1C2=O ... 16.8
CCOP(=O)(OCC)C(O)C1=C(N(C)C)C(=O)N(c2ccccc2Cl)C1=O (stereo unspecified) ... 15.1
CCOP(=O)(OCC)C(O)C1=C(N(C)C)C(=O)N(c2ccc(Br)cc2)C1=O (stereo unspecified) ... 13.8
CCOP(=O)(OCC)C(O)C1=C(N(C)C)C(=O)N(c2cccc(Cl)c2)C1=O (stereo unspecified) ... 16.6
CCOP(=O)(OCC)C(O)C1=C(N(C)C)C(=O)N(c2ccc(F)cc2)C1=O (stereo unspecified) ... 16.5

Moving on to the next compound.
Look up and report measured zone of inhibition at 100 µg/disc for this entry: CCOP(=O)(OCC)C(O)C1=C(N(C)C)C(=O)N(c2cccc(C(F)(F)F)c2)C1=O (stereo unspecified)
15.2

* * *

Let's look at some molecules and their measured MIC.
Tested on: Candida tropicalis
Test: Antimicrobial activity against Candida tropicalis MTCC 184 after 24 hrs by NCCLS M7-A5 method
Format: functional
Conditions: MTCC 184, 24 h
Numbers only; they are read as µg/mL.

Example entries and their recorded answers appear below.
CCOP(=O)(OCC)C(O)C1=C(N(C)C)C(=O)N(c2ccccc2)C1=O (stereo not drawn) ... 20
CCOP(=O)(OCC)C(O)C1=C(N(C)C)C(=O)N(c2ccc(Cl)cc2)C1=O (stereo not drawn) ... 25
CCOP(=O)(OCC)C(O)C1=C(N(C)C)C(=O)N(c2cccc(C(F)(F)F)c2)C1=O (stereo not drawn) ... 10
CCOP(=O)(OCC)C(O)C1=C(N(C)C)C(=O)N(c2ccc(Br)cc2)C1=O (stereo not drawn) ... 15
COC1=CC(=O)C[C@@H](C)[C@]12Oc1c(Cl)c(OC)cc(OC)c1C2=O [GRISEOFULVIN] ... 5
CCOP(=O)(OCC)C(O)C1=C(N(C)C)C(=O)N(c2cccc(Cl)c2)C1=O (stereo not drawn) ... 10
CCOP(=O)(OCC)C(O)C1=C(N(C)C)C(=O)N(c2ccc(F)cc2)C1=O (stereo not drawn) ... 15

Kindly indicate its recorded MIC. Item: CCOP(=O)(OCC)C(O)C1=C(N(C)C)C(=O)N(c2ccccc2Cl)C1=O (stereo not drawn)
20

* * *

Tested on: Escherichia coli
Assay: Antimicrobial activity against Escherichia coli ATCC 25922 after 24 hrs by NCCLS M7-A5 method
Assay type: functional
Conditions: ATCC 25922, 24 h
# reported MIC; entries follow

Recorded MIC, per entry:
CCOP(=O)(OCC)C(O)C1=C(N(C)C)C(=O)N(c2ccc(Br)cc2)C1=O (stereo not drawn) ... 25 mg/L
CCOP(=O)(OCC)C(O)C1=C(N(C)C)C(=O)N(c2ccc(F)cc2)C1=O (stereo not drawn) ... 10 mg/L
CN[C@@H]1[C@H](O[C@H]2[C@H](O[C@H]3[C@H](O)[C@@H](O)[C@H](N=C(N)N)[C@@H](O)[C@@H]3N=C(N)N)O[C@@H](C)[C@]2(O)C=O)O[C@@H](CO)[C@H](O)[C@H]1O [STREPTOMYCIN] ... 5 mg/L
CCOP(=O)(OCC)C(O)C1=C(N(C)C)C(=O)N(c2ccccc2Cl)C1=O (stereo not drawn) ... 15 mg/L
CCOP(=O)(OCC)C(O)C1=C(N(C)C)C(=O)N(c2cccc(Cl)c2)C1=O (stereo not drawn) ... 20 mg/L
CCOP(=O)(OCC)C(O)C1=C(N(C)C)C(=O)N(c2ccccc2)C1=O (stereo not drawn) ... 20 mg/L

State the measured MIC (Escherichia coli) of CCOP(=O)(OCC)C(O)C1=C(N(C)C)C(=O)N(c2ccc(Cl)cc2)C1=O (stereo not drawn)
25 mg/L

Output reported MIC of the molecule CCOP(=O)(OCC)C(O)C1=C(N(C)C)C(=O)N(c2cccc(C(F)(F)F)c2)C1=O (stereo not drawn) on Escherichia coli.
10 mg/L

* * *

Test system: Aspergillus clavatus
Assay: Antimicrobial activity against Aspergillus clavatus MTCC 1323 at 100 ug/disc after 48 hrs by agar cup plate method
Type: functional
Conditions: MTCC 1323, 48 h, read-out: DIZ
Measured zone of inhibition at 100 µg/disc, listed per entry for reference.
Give just the numeric value; mm need not be written.

# count of solved cases: 6
COC1=CC(=O)C[C@@H](C)[C@]12Oc1c(Cl)c(OC)cc(OC)c1C2=O ... 17.6
CCOP(=O)(OCC)C(O)C1=C(N(C)C)C(=O)N(c2ccccc2Cl)C1=O (configuration not stated) ... 16.8
CCOP(=O)(OCC)C(O)C1=C(N(C)C)C(=O)N(c2ccc(Br)cc2)C1=O (configuration not stated) ... 16.4
CCOP(=O)(OCC)C(O)C1=C(N(C)C)C(=O)N(c2ccccc2)C1=O (configuration not stated) ... 16.3
CCOP(=O)(OCC)C(O)C1=C(N(C)C)C(=O)N(c2ccc(F)cc2)C1=O (configuration not stated) ... 17.3
CCOP(=O)(OCC)C(O)C1=C(N(C)C)C(=O)N(c2cccc(C(F)(F)F)c2)C1=O (configuration not stated) ... 17.4

Here's the next entry for you.
Specify reported zone of inhibition at 100 µg/disc for the compound shown: CCOP(=O)(OCC)C(O)C1=C(N(C)C)C(=O)N(c2cccc(Cl)c2)C1=O (configuration not stated)
16.2
